test system: DYRK1B; conditions: concentration: 1 μM,replicates: in singlicate; n = 1;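 note: KINOMEscan kinase panel screen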
test readout: %Inh (%)
The reply should contain only the number, in %.

{"columns": ["compound", "%Inh, %"],
 "data": [
  ["O=C(Nc1ccccc1)c1cccc(Oc2ccc3nccn3n2)c1", 28]
]}

Task item: What does the data say about its %Inh? Entry: O=c1[nH]cc(-c2ccc(O)cc2)c2sc(-c3ccncc3)cc12 [GSK1033723]
Reply: 84

Task item: What does the data say about its %Inh? Entry: Cc1n[nH]c2cc(Nc3ccnc(Nc4cccc(CN5CCOCC5)c4)n3)ccc12 [GW682569]
Reply: 4

Task item: What does the data say about its %Inh? Entry: COC(=O)c1cccc(NC(=O)NC2CCN(c3ccnc(Nc4cc(OC)c(OC)c(OC)c4)n3)C2)c1 (stereo not drawn) [GSK1379767]
Reply: 15

Task item: What does the data say about its %Inh? Entry: O=C(Nc1n[nH]c2cc(-c3ccco3)ccc12)C1CC1 [SB-737447]
Reply: 0

Task item: What does the data say about its %Inh? Entry: Cc1nnc(-c2ccc3occ(-c4ccc(S(C)=O)cc4)c3n2)o1 (stereo not drawn)
Reply: 0
